Tested on: Saccharomyces cerevisiae BY4741 SeMeCo community
METHOD NOTES: z-score of subpopulation abundance vs DMSO median, subpopulation auxotrophic for LU; higher = larger share of this subpopulation than in DMSO controls
CONDITION CONTEXT: 10 µM; 24 h; SM minimal medium; subpopulation (auxotrophy): LU
Where a name gives a salt, the structure may show the parent alone.
Please enter Criterion met where z-score of subpopulation abundance is greater than or equal to -0.5, and Criterion not met where it is lower.

1) O=C(NCCN1CCOCC1)c1ccc(Cl)cc1 | Criterion met
2) Cc1c(C)c2c(c(C)c1O)CCC(C)(CCCC(C)CCCC(C)CCCC(C)C)O2 (stereo not drawn) | Criterion met
3) CCOc1cc(N)c(Cl)cc1C(=O)NCC1CN(Cc2ccc(F)cc2)CCO1 (stereo not drawn) [Mosapride Citrate] | Criterion met
4) CC[C@H](C)C(=O)O[C@H]1C[C@@H](C)C=C2C=C[C@H](C)[C@H](CC[C@@H]3C[C@@H](O)CC(=O)O3)[C@H]21 | Criterion met
5) CN(C)CCc1c[nH]c2ccc(C[C@H]3COC(=O)N3)cc12 | Criterion not met

Query: Entry O=C(O)CCC(=O)OC[C@@H](NC(=O)C(Cl)Cl)[C@H](O)c1ccc([N+](=O)[O-])cc1 [Chloramphenicol sodium succinate] : is its z-score of subpopulation abundance no less than -0.5?
Reply: Criterion met

Query: Entry Cc1ccc(-c2ncc(Cl)cc2-c2ccc(S(C)(=O)=O)cc2)cn1 : is its z-score of subpopulation abundance no less than -0.5?
Reply: Criterion not met

Query: Entry N#Cc1ccc2[nH]cc(CCCCN3CCN(c4ccc5oc(C(N)=O)cc5c4)CC3)c2c1 [Vilazodone] : is its z-score of subpopulation abundance no less than -0.5?
Reply: Criterion not met

###

System: Saccharomyces cerevisiae BY4741 SeMeCo community
METHOD NOTES: z-score of subpopulation abundance vs DMSO median, subpopulation auxotrophic for HM; higher = larger share of this subpopulation than in DMSO controls
CONDITION CONTEXT: 10 µM; 24 h; SM minimal medium; subpopulation (auxotrophy): HM
The compounds listed here are annotated with their z-score of subpopulation abundance.
API note: the answer field is a bare number with no unit suffix.

Query: I am curious: what z-score of subpopulation abundance value has been reported for Cc1onc(-c2c(Cl)cccc2Cl)c1C(=O)N[C@@H]1C(=O)N2[C@@H]1SC(C)(C)[C@@H]2C(=O)O [Dicloxacillin Sodium] ?
Reply: -0.31

###

The compounds listed here are annotated with their z-score of subpopulation abundance.
Tested on: Saccharomyces cerevisiae BY4741 SeMeCo community
METHOD NOTES: z-score of subpopulation abundance vs DMSO median, subpopulation auxotrophic for HLUM; higher = larger share of this subpopulation than in DMSO controls
CONDITION CONTEXT: 10 µM; 24 h; SM minimal medium; subpopulation (auxotrophy): HLUM

Look over these answered cases.
1. CC(C)COc1ccc(CNC(=O)N(Cc2ccc(F)cc2)C2CCN(C)CC2)cc1 | -0.3
2. COc1cc([C@@H]2c3cc4c(cc3[C@@H](O[C@@H]3O[C@@H]5CO[C@@H](c6cccs6)O[C@H]5[C@H](O)[C@H]3O)[C@H]3COC(=O)[C@H]23)OCO4)cc(OC)c1O [Teniposide] | 0.55

Query: I am curious: what z-score of subpopulation abundance value has been reported for CC(=O)O[C@H]1C[C@@]2(C)[C@@H](C[C@@H](O)[C@H]3[C@@]4(C)CC[C@@H](O)[C@@H](C)[C@@H]4CC[C@@]32C)/C1=C(\CCC=C(C)C)C(=O)O [Fusidate Sodium] ?
Reply: -0.08

###

Tested on: Saccharomyces cerevisiae BY4741 SeMeCo community
METHOD NOTES: z-score of subpopulation abundance vs DMSO median, subpopulation auxotrophic for LM; higher = larger share of this subpopulation than in DMSO controls
CONDITION CONTEXT: 10 µM; 24 h; SM minimal medium; subpopulation (auxotrophy): LM
Where a name gives a salt, the structure may show the parent alone.
Lab note: class by z-score of subpopulation abundance, see low end = under -0.2, middle = from -0.2 up to 0.3, high end = 0.3 and over

Consider the following illustrative entries.
1) CCOC(=O)C1=C[C@]2(CC)CCCN3CCc4c(n1c1ccccc41)[C@@H]32 | high end
2) O=C1c2c(O)ccc(O)c2C(=O)c2c(NCCNCCO)ccc(NCCNCCO)c21 [Mitoxantrone 2HCl] | low end
3) COc1cc(C(C)=O)ccc1OCCCN1CCC(c2noc3cc(F)ccc23)CC1 | high end
4) CC(=O)OCC(COC(C)=O)OC(C)=O | middle
5) C=CCCCCCCCCC(=O)[O-].C=CCCCCCCCCC(=O)[O-].[Zn+2] [Zinc Undecylenate] | low end

Query: Bin this entry: CCC1=C(C)CN(C(=O)NCCc2ccc(S(=O)(=O)NC(=O)N[C@H]3CC[C@H](C)CC3)cc2)C1=O [Glimepiride]
Reply: high end

Query: Bin this entry: CC(=O)OCC1=C(C(=O)O)N2C(=O)[C@@H](NC(=O)CSc3ccncc3)[C@H]2SC1
Reply: middle

Query: Bin this entry: Cc1nccn1CC1CCc2c(c3ccccc3n2C)C1=O (stereo unspecified) [Ondansetron Hydrochloride Dihydrate]
Reply: middle

Query: Bin this entry: CCCN(CCc1cccs1)[C@H]1CCc2c(O)cccc2C1
Reply: high end

Query: Bin this entry: O=c1[nH]cnc2c1ncn2[C@@H]1O[C@H](CO)[C@@H](O)[C@H]1O
Reply: middle

Query: Bin this entry: CCOC(=O)C1=C(COCCN)NC(C)=C(C(=O)OC)[C@@H]1c1ccccc1Cl
Reply: high end

Query: Bin this entry: O=C(c1ccc(OCCN2CCCCC2)cc1)c1c(-c2ccc(O)cc2)sc2cc(O)ccc12 [Raloxifene HCl]
Reply: high end

###

The molecules listed here are annotated with their z-score of subpopulation abundance.
Test system: Saccharomyces cerevisiae BY4741 SeMeCo community
METHOD NOTES: z-score of subpopulation abundance vs DMSO median, subpopulation auxotrophic for LM; higher = larger share of this subpopulation than in DMSO controls
CONDITION CONTEXT: 10 µM; 24 h; SM minimal medium; subpopulation (auxotrophy): LM
Counter-ions that a name gives are not always drawn.
API note: the answer field is a bare number with no unit suffix.

1. CCCCCCCCN=C(N)NC(N)=NCc1ccc(Cl)c(Cl)c1 [Olanexidine Hydrochloride semihydrate] | -0.77

Query: I am curious: what z-score of subpopulation abundance value has been reported for COc1ccnc(C[S+]([O-])c2nc3cc(OC(F)F)ccc3[nH]2)c1OC (stereo not given) [Pantoprazole sodium] ?
Reply: 0

Query: I am curious: what z-score of subpopulation abundance value has been reported for C[C@]12CC[C@@H]3c4ccc(OC(=O)c5ccccc5)cc4CC[C@H]3[C@@H]1CC[C@@H]2O [Estradiol Benzoate] ?
Reply: 0.31

Query: I am curious: what z-score of subpopulation abundance value has been reported for CN(C)C(=O)COC(=O)Cc1ccc(OC(=O)c2ccc(NC(=N)N)cc2)cc1 [Camostat Mesilate] ?
Reply: -0.5

Query: I am curious: what z-score of subpopulation abundance value has been reported for CCOc1ccc2nc3cc(N)ccc3c(N)c2c1 [Ethacridine lactate monohydrate] ?
Reply: 4.18

Query: I am curious: what z-score of subpopulation abundance value has been reported for C=C1c2cccc(O)c2C(O)=C2C(=O)[C@]3(O)C(O)=C(C(N)=O)C(=O)[C@@H](N(C)C)[C@@H]3[C@@H](O)[C@H]12 [Methacycline HCl] ?
Reply: 0.5

Query: I am curious: what z-score of subpopulation abundance value has been reported for NC(CO)(CO)CO [Trometamol] ?
Reply: -0.62

Query: I am curious: what z-score of subpopulation abundance value has been reported for C[N+]1(C)CCC(=C(c2ccccc2)c2ccccc2)CC1 [Diphemanil Methylsulfate] ?
Reply: 0.34

Query: I am curious: what z-score of subpopulation abundance value has been reported for O=C(O)CCNC(=O)c1ccccc1 [Betamipron] ?
Reply: -0.71

Query: I am curious: what z-score of subpopulation abundance value has been reported for C#CCN(C)Cc1ccccc1 [Pargyline hydrochloride] ?
Reply: -0.51

Query: I am curious: what z-score of subpopulation abundance value has been reported for Oc1c(Cl)cc(Cl)c2cccnc12 [Chloroxine] ?
Reply: 10.6

Query: I am curious: what z-score of subpopulation abundance value has been reported for C[C@@H](O)[C@H]1C(=O)N2C(C(=O)O)=C([C@H]3CCCO3)S[C@H]12 [Faropenem Sodium] ?
Reply: -0.23

Query: I am curious: what z-score of subpopulation abundance value has been reported for CCOC(=O)c1ccc(N)cc1 [Benzocaine] ?
Reply: 0.32

###

Tested on: Saccharomyces cerevisiae BY4741 SeMeCo community
METHOD NOTES: z-score of subpopulation abundance vs DMSO median, subpopulation auxotrophic for HLUM; higher = larger share of this subpopulation than in DMSO controls
CONDITION CONTEXT: 10 µM; 24 h; SM minimal medium; subpopulation (auxotrophy): HLUM
Where a name gives a salt, the structure may show the parent alone.
READOUT TYPE: z-score of subpopulation abundance
API note: the answer field is a bare number with no unit suffix.

1. Cc1[nH]cnc1CN1CCc2c(c3ccccc3n2C)C1=O [Alosetron Hydrochloride] | 1.5
2. O=S1(=O)CCN(CN2CCS(=O)(=O)NC2)CN1 [Taurolidine] | -0.55
3. Nc1ccc(S(=O)(=O)Nc2ncccn2)cc1 [Sodium sulfadiazine] | 0.02

Query: I am curious: what z-score of subpopulation abundance value has been reported for CC[C@@H]1/C=C(\C)C[C@H](C)C[C@H](OC)[C@H]2O[C@@](O)(C(=O)C(=O)N3CCCC[C@H]3C(=O)O[C@H](/C(C)=C/[C@@H]3CC[C@H](Cl)[C@H](OC)C3)[C@H](C)[C@@H](O)CC1=O)[C@H](C)C[C@@H]2OC [Pimecrolimus] ?
Reply: 2.63

Query: I am curious: what z-score of subpopulation abundance value has been reported for Cc1cc(-n2c(=O)[nH]c(=O)n(C)c2=O)ccc1Oc1ccc(SC(F)(F)F)cc1 [Toltrazuril] ?
Reply: 0.28

Query: I am curious: what z-score of subpopulation abundance value has been reported for CC(C)c1c(C(=O)Nc2ccccc2)c(-c2ccccc2)c(-c2ccc(F)cc2)n1CC[C@@H](O)C[C@@H](O)CC(=O)O [Atorvastatin Calcium] ?
Reply: 4.28

Query: I am curious: what z-score of subpopulation abundance value has been reported for COC(=O)C1=C(C)NC(C)=C(C(=O)OC2CCCN(Cc3ccccc3)C2)C1c1cccc([N+](=O)[O-])c1 (centres undefined) [Benidipine HCl] ?
Reply: -0.21

Query: I am curious: what z-score of subpopulation abundance value has been reported for COc1cc(N)c(Cl)cc1C(=O)NC1CCN(CCCOc2ccc(F)cc2)CC1OC (centres undefined) [Cisapride] ?
Reply: -0.17

Query: I am curious: what z-score of subpopulation abundance value has been reported for CC(NCCC(c1ccccc1)c1ccccc1)c1ccccc1 (centres undefined) [Fendiline hydrochloride] ?
Reply: -0.29
